Source listed as ChEMBL document CHEMBL3044762.

- assay_target: Falcipain 2 (Plasmodium falciparum, UniProt Q9N6S8)
- Sequence (Q9N6S8 whole entry): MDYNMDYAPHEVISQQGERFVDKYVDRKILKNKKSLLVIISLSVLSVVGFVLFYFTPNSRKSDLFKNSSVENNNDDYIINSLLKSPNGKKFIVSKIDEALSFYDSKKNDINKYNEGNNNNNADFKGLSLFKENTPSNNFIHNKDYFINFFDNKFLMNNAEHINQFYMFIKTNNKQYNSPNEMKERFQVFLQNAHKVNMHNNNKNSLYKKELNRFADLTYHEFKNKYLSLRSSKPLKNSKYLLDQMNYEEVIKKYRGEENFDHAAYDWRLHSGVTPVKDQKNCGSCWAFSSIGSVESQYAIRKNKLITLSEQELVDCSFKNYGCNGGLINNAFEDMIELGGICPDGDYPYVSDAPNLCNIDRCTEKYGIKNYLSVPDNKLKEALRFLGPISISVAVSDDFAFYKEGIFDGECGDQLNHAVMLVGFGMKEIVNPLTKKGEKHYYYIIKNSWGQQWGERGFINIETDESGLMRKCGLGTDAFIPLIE
- assay_explanation: Inhibition of recombinant Plasmodium falciparum falcipain-2 using Z-Leu-Arg-AMC as substrate compound treated for 30 min before substrate addition by fluorescence assay
pIC50: −log10 of the molar value.
readout: pIC50

Falcipain 2 (Plasmodium falciparum, UniProt Q9N6S8) / pIC50 / `O=C(CCc1nc(CO)c(CCc2ccccc2)s1)CSCCCc1ccccc1` : value?
< 4.90

Now consider `O=C(CCc1nc(CCc2ccccc2)c(CCCO)s1)CSCCCc1ccccc1` and answer again.
< 4.90

Follow-up item: `NC(=O)CCc1sc(CCC(=O)CSCCCc2ccccc2)nc1CCc1ccccc1`
< 4.48

----------
- System: Plasmodium falciparum
- assay_explanation: Antimalarial activity against Plasmodium falciparum W2 […] after 72 hr by LDH assay
- Format: functional
readout: inhibition (INH) (%)
Expressed in %, but write only the number.

Return reported inhibition (INH); argument: `NC(=O)CCc1sc(CCC(=O)CSCCCc2ccccc2)nc1CCc1ccccc1`
43

How about `O=CCCc1sc(CCC(=O)CSCCCc2ccccc2)nc1CCc1ccccc1` ?
26

Subsequent entry: `Nc1nc(CCc2ccccc2)c(CCCO)s1`
26

Now give it for `NC(=O)CCc1sc(NC(=O)CSCCCc2ccccc2)nc1/C=C/c1ccccc1` too.
26

----------
- Test system: Vero
- assay_explanation: Cytotoxicity against Chlorocebus aethiops (African green monkey) Vero cells by Neutral Red assay
- Assay type: cell-based
- conditions: chlorocebus sabaeus, vero
readout: TD50

- compound_structure_string: "NC(=O)CCc1sc(NC(=O)CSCCCc2ccccc2)nc1/C=C/c1ccccc1"
  TD50: "Non-toxic"
- compound_structure_string: "CC(=O)NCCCc1sc(CCC(=O)CSCCCc2ccccc2)nc1CCc1ccccc1"
  TD50: "Non-toxic"
- compound_structure_string: "CC(=O)OCc1nc(CCC(=O)CSCCCc2ccccc2)sc1CCc1ccccc1"
  TD50: "Non-toxic"
- compound_structure_string: "CCOC(=O)CCc1sc(NC(=O)CSCCCc2ccccc2)nc1/C=C/c1ccccc1"
  TD50: "Non-toxic"

Fill in the blank: the reported TD50 of `Nc1nc(CCc2ccccc2)c(CCCO)s1` is ____.
Non-toxic

Quick one: `O=CCCc1sc(CCC(=O)CSCCCc2ccccc2)nc1CCc1ccccc1`
Non-toxic

----------
- assay_target: UniProtKB Q8IIL0
- Sequence (Q8IIL0 whole entry, looked up): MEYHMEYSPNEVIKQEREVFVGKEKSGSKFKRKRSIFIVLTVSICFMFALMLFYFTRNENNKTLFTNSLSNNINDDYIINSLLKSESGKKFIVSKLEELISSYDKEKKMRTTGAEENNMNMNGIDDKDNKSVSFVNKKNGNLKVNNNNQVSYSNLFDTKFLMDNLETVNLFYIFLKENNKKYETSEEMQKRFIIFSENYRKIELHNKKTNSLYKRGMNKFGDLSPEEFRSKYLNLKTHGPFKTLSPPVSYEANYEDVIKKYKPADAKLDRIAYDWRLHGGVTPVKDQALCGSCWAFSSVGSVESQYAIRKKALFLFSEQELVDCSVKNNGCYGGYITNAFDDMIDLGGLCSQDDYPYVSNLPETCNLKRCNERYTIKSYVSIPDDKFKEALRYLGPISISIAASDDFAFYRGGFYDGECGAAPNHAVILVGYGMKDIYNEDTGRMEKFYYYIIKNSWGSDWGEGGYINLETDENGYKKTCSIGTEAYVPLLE
- assay_explanation: Inhibition of recombinant Plasmodium falciparum falcipain-3 using Z-Leu-Arg-AMC as substrate compound treated for 30 min before substrate addition by fluorescence assay
pIC50: −log10 of the molar value.
readout: pIC50

Observe how each entry below is paired with its result.
- compound_structure_string: "NC(=O)CCc1sc(CCC(=O)CSCCCc2ccccc2)nc1CCc1ccccc1"
  pIC50: "< 4.30"
- compound_structure_string: "O=C(CCc1nc(CCc2ccccc2)c(CCCO)s1)CSCCCc1ccccc1"
  pIC50: "< 4.30"
- compound_structure_string: "CC(=O)OCc1nc(CCC(=O)CSCCCc2ccccc2)sc1CCc1ccccc1"
  pIC50: "< 4.30"
- compound_structure_string: "O=C(/C=C/c1nc(CCc2ccccc2)c(CCCO)s1)CSCCCc1ccccc1"
  pIC50: 4.53
- compound_structure_string: "CC(=O)NCCCc1sc(CCC(=O)CSCCCc2ccccc2)nc1CCc1ccccc1"
  pIC50: "< 4.30"
- compound_structure_string: "O=CCCc1sc(CCC(=O)CSCCCc2ccccc2)nc1CCc1ccccc1"
  pIC50: "< 4.30"
- compound_structure_string: "NC(=O)CCc1sc(NC(=O)CSCCCc2ccccc2)nc1/C=C/c1ccccc1"
  pIC50: 4.26

Now for a further compound.
Form field: reported pIC50 of `O=C(CCc1nc(CO)c(CCc2ccccc2)s1)CSCCCc1ccccc1`
< 4.30
